FYI, the data here is from paper PMC5835416.

ASSAY TARGET: tear lipocalin (Homo sapiens, UniProt P31025)
Sequence (P31025 19-176): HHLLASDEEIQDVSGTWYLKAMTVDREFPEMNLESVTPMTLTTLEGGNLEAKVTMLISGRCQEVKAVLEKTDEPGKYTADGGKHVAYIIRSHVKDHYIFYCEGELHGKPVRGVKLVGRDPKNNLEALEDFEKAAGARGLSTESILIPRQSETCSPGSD
Assay type: binding
MEASUREMENT CONDITIONS: read-out: apparent dissociation constant (Kd), fit not named
QUANTITY NAME: Kd (µM)
Give the value in µM but do not write µM after it.

Query: Need Kd, item CCCCCCCCCCCCC/C=C/[C@@H](O)[C@H](CO)NC(=O)CCCCCCCCCCCNc1ccc([N+](=O)[O-])c2nonc12 [C12-NBD ceramide]
Result: 1.2

====

ASSAY TARGET: UniProt:P31025
ASSAY METHOD TEXT: Linear spectral summation
Type: binding
MEASUREMENT CONDITIONS: apparent; hyperbola fit; tear lipocalin 10 μM, pH 7.3
QUANTITY NAME: Kd
Kindly write the number and append the unit.

Query: Report Kd for CCCCCCCCCCCCC/C=C/[C@@H](O)[C@H](CO)NC(=O)CCCCCNc1ccc([N+](=O)[O-])c2nonc12 [C6-NBD ceramide] please.
Result: 60 nM

====

Answer each item with its documented pKd.
ASSAY TARGET: tear lipocalin (Homo sapiens)
Type: binding
MEASUREMENT CONDITIONS: apparent; Hill equation fit; 10 μM (C6) or 20 μM (C12) tear lipocalin, 10 mM sodium phosphate pH 7.3
# pKd = -log10(concentration in molar units)

Query: So what's the measured pKd for this one? CCCCCCCCCCCCC/C=C/[C@@H](O)[C@H](CO)NC(=O)CCCCCNc1ccc([N+](=O)[O-])c2nonc12 [C6-NBD ceramide]
Result: 6.54

Query: What does the data say about its pKd? Entry: CCCCCCCCCCCCC/C=C/[C@@H](O)[C@H](CO)NC(=O)CCCCCCCCCCCNc1ccc([N+](=O)[O-])c2nonc12 [C12-NBD ceramide]
Result: 5.97

====

ASSAY TARGET: tear lipocalin (Homo sapiens, UniProt P31025)
ASSAY METHOD TEXT: Fluorescence binding assay with NBD-labeled lipids
MEASUREMENT CONDITIONS: apparent; Hill equation fit; 1 μM tear lipocalin, pH 7.3
QUANTITY NAME: Kd (nM)
Entry rule: numbers only, all in nM.

Query: Using the record for CCCCCCCCCCCCC/C=C/[C@@H](O)[C@H](CO)NC(=O)CCCCCNc1ccc([N+](=O)[O-])c2nonc12 [C6-NBD ceramide] , report its Kd.
Result: 80

Query: Which Kd is reported for this compound? CCCCCCCCCCCCC/C=C/[C@@H](O)[C@H](CO)NC(=O)CCCCCCCCCCCNc1ccc([N+](=O)[O-])c2nonc12 [C12-NBD ceramide]
Result: 100

====

ASSAY TARGET: tear lipocalin (Homo sapiens)
ASSAY METHOD TEXT: Fluorescence binding assay with NBD-labeled lipids
MEASUREMENT CONDITIONS: apparent; hyperbola fit; 1 μM tear lipocalin, pH 7.3
QUANTITY NAME: Kd
Please append the unit to your numeric answer.

Query: Requested field: Kd. Item: CCCCCCCCCCCCC/C=C/[C@@H](O)[C@H](CO)NC(=O)CCCCCCCCCCCNc1ccc([N+](=O)[O-])c2nonc12 [C12-NBD ceramide]
Result: 0.13 µM

Query: Entry CCCCCCCCCCCCC/C=C/[C@@H](O)[C@H](CO)NC(=O)CCCCCNc1ccc([N+](=O)[O-])c2nonc12 [C6-NBD ceramide] has what Kd?
Result: 0.08 µM
